FYI, the data here is from PubChem BioAssay AID1159580.

test: chemical genetic growth profiling, strain panel (AID 1159580);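 further: tested at 20 µM; growth read once vehicle control cultures reached saturation at 30 °C; 1 = growth at the plate median or of vehicle wells; lower values mean less growth of the strain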; conditions: S. cerevisiae deletion strains, growth OD, locus YMR307W, strain GAS1, hits give low values
Out of some 5,500 compounds screened, about 2,000 (36%) were called active. Inconclusive results (about 18%) are left out. This is one part of the list.
Value Type: normalized growth
Respond using a number only.

Compound	normalized growth
COc1cc2c(cc1OC)C(=O)C(CC1CCN(Cc3ccccc3)CC1)C2 (stereo not drawn)	0.971
CN1CCc2cc3c(cc2C1O)OCO3 (stereo not drawn)	0.951
NC[C@@H]1O[C@H](O[C@@H]2[C@@H](CO)OC(O[C@@H]3[C@@H](O)[C@H](N)C[C@H](N)[C@H]3OC3O[C@H](CN)[C@@H](O)[C@H](O)[C@H]3N)[C@@H]2O)[C@H](N)[C@@H](O)[C@@H]1O (stereo partly drawn)	1.1
COc1c(CC=C(C)C)c2c(c3oc(=O)c(-c4ccc(O)cc4)c(O)c13)C=CC(C)(C)O2	0.773
CC1(C)S[C@@H]2[C@H](NC(=O)[C@H](NC(=O)N3CCNC3=O)c3ccccc3)C(=O)N2C1C(=O)O (stereo partly drawn)	1.08

Q: Entry `CCSC(=N)N` : reported normalized growth = ?
Ans: 1.03

Q: // normalized growth lookup, key: `Cn1cc[nH]c1=S`
Ans: 1.05
